From: the MegaScale stability set (Tsuboyama et al. 2023)

B1: EEHEE_rd4_0647 (parent)
chain: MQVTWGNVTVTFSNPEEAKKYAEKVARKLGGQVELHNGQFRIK

- Variants of: B1
- method: folding stability dG (cDNA display proteolysis); higher = more stable
- experimental_conditions: PBS, room temperature
Tick Met if folding stability dG is 2 kcal/mol or greater. Tick Not met if folding stability dG is less than 2 kcal/mol.

mutations: A26L
classification: Not met

mutations: Y21D
classification: Not met

mutations: K24M
classification: Met

mutations: T4V
classification: Met

mutations: V33N
classification: Not met

mutations: K24Y
classification: Met

mutations: E16A
classification: Met

mutations: F12S
classification: Not met

-- ask Is reported folding stability dG greater than or equal to 2 kcal/mol here: Q2C
-- reply Met

-- ask Is reported folding stability dG greater than or equal to 2 kcal/mol here: T4G
-- reply Not met

-- ask Is reported folding stability dG greater than or equal to 2 kcal/mol here: K19H
-- reply Met

-- ask Is reported folding stability dG greater than or equal to 2 kcal/mol here: T11P
-- reply Not met
